target: human PDHK2 (hPDHK2) (Homo sapiens (Human), UniProt Q15119)
assay info: Inhibitory action of PDHK2 activity in vitro (residual PDH activity after PDHK reaction)
test parameters: PDH/hPDHK2 complex solution, PDHK reaction at room temperature for 45 min, NADH absorbance at 340 nm; read-out: kPDK2 IC50
Measured IC50, listed per entry for reference.

| molecule | unit label | value qualifier | IC50 |
| --- | --- | --- | --- |
| C[C@H]1CN(C(=O)c2cc(-c3ccc(S(C)(=O)=O)cc3)nn2C)Cc2cnc([C@@](C)(O)C(F)(F)F)n21 [Example 44] | nM | = | 7 |
| C[C@H]1CN(C(=O)c2n[nH]c3c2CCC(C)(C)C3)Cc2onc([C@@](C)(O)C(F)(F)F)c21 [Example 103] | nM | < | 3 |
| C[C@H]1CN(C(=O)c2cccc(-c3ccccn3)c2)Cc2cnc([C@@](C)(O)C(F)(F)F)n21 [Example 49] | nM | = | 3 |
| C[C@H]1CN(C(=O)c2ccnc(-c3ccc(F)cc3)c2)Cc2cnc([C@@](C)(O)C(F)(F)F)n21 [Example 48] | nM | < | 3 |
| Cc1c(C(=O)N2Cc3cnc([C@@](C)(O)C(F)(F)F)n3[C@@H](C)C2)ccnc1-c1ccc(C#N)cc1 [Example 65] | nM | = | 5 |
| C[C@H]1CN(C(=O)c2c(Cl)c(C3CC3)nn2C)Cc2cnc([C@@](C)(O)C(F)(F)F)n21 [Example 22] | nM | = | 8 |
| C[C@H]1CN(C(=O)c2ccnc(-c3ccc(F)cc3C#N)c2)Cc2cnc([C@@](C)(O)C(F)(F)F)n21 [Example 54] | nM | = | 5 |
| C[C@H]1CN(C(=O)c2c(C#N)c(C3CC3)nn2C)Cc2cnc([C@@](C)(O)C(F)(F)F)n21 [Example 19] | nM | < | 3 |

----------
target: human PDHK2 (hPDHK2) (Homo sapiens (Human))
assay info: Inhibitory action of PDHK2 activity in vitro (residual PDH activity after PDHK reaction)
test parameters: PDH/hPDHK2 complex solution, PDHK reaction at room temperature for 45 min, NADH absorbance at 340 nm; read-out: kPDK2 IC50
Threshold 6 nM: IC50 strictly smaller gives Condition met, otherwise Condition not met.

| compound smiles | label value |
| --- | --- |
| C[C@H]1CN(C(=O)c2c3c(F)cc(F)cc3nn2C)Cc2cnc([C@@](C)(O)C(F)(F)F)n21 | Condition not met |
| C[C@H]1CN(C(=O)c2ccc(F)c(-c3ccc(C#N)cn3)c2)Cc2cnc([C@@](C)(O)C(F)(F)F)n21 | Condition met |
| C[C@H]1CN(C(=O)c2cc(-c3ccc(C#N)cc3)n(C)n2)Cc2cnc([C@@](C)(O)C(F)(F)F)n21 | Condition not met |
| C[C@H]1CN(C(=O)c2cc(C3CC3)n(CC(F)(F)F)n2)Cc2cnc([C@@](C)(O)C(F)(F)F)n21 | Condition not met |
| C[C@H]1CN(C(=O)c2cc(-c3ccc(F)cc3C#N)nn2C)Cc2cnc([C@@](C)(O)C(F)(F)F)n21 | Condition met |
| C[C@H]1CN(C(=O)c2c3cc(F)ccc3nn2C)Cc2cnc([C@@](C)(O)C(F)(F)F)n21 | Condition met |
| C[C@H]1CN(C(=O)c2ccnc(-c3ccc(F)cc3)c2F)Cc2cnc([C@@](C)(O)C(F)(F)F)n21 | Condition met |
| Cc1c(-c2ccc(C#N)cc2)nn(C)c1C(=O)N1Cc2cnc([C@@](C)(O)C(F)(F)F)n2[C@@H](C)C1 | Condition not met |
| C[C@H]1CN(C(=O)c2ccnc(-c3ccc(C#N)cc3)c2)Cc2cnc([C@@](C)(O)C(F)(F)F)n21 | Condition not met |
| C[C@H]1CN(C(=O)c2nn(C)c3cc(C#N)ccc23)Cc2cnc([C@@](C)(O)C(F)(F)F)n21 | Condition met |
